# System: CCRF-CEM (T-Lymphoblastic Leukemia);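 note: after 72 h of two-drug dosing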
# Procedure text: Bliss excess, mean over the matrix (fraction); higher = more synergy
molecules and their reported Bliss excess
Endpoint name: Bliss excess

[[record]]
molecule = "CC(=O)Nc1cccc(-n2c(=O)n(C3CC3)c(=O)c3c(Nc4ccc(I)cc4F)n(C)c(=O)c(C)c32)c1 [Trametinib] + Cc1nc(-c2cn3c(n2)-c2ccc(-c4cnn(C(C)(C)C(N)=O)c4)cc2OCC3)n(C(C)C)n1 [Taselisib] (first compound max 1 µM, 7x7, partner max 10 µM)"
endpoint_name = "Bliss excess"
value_observed = 0.0951

[[record]]
molecule = "Cc1cc2ncnn2cc1Nc1ncc2c(n1)n(C1CCOCC1)c(=O)n2C [AZD7648] + CCN(CCO)CCCOc1ccc2c(Nc3cc(CC(=O)Nc4cccc(F)c4)[nH]n3)ncnc2c1 [AZD2811] (first compound max 10 µM, 7x7, partner max 1 µM)"
endpoint_name = "Bliss excess"
value_observed = -0.0396

[[record]]
molecule = "COc1nnc2ccc(N3CCC(c4ccc(OCCN5CCN(C)C(=O)[C@H]5C)cc4)CC3)nn12 [AZD5153] + C[C@@H]1COCCN1C2=NC(=NC(=C2)C3(CC3)[S@](=N)(=O)C)C4=C5C=CNC5=NC=C4 [AZD6738] (first compound max 1 µM, 7x7, partner max 10 µM)"
endpoint_name = "Bliss excess"
value_observed = -0.0178

[[record]]
molecule = "CS(=O)(=O)CCNCc1ccc(-c2ccc3ncnc(Nc4ccc(OCc5cccc(F)c5)c(Cl)c4)c3c2)o1 [Lapatinib] + C[C@@H](Oc1cc(-c2cnn(C3CCNCC3)c2)cnc1N)c1c(Cl)ccc(F)c1Cl [Crizotinib] (first compound max 10 µM, 7x7, partner max 10 µM)"
endpoint_name = "Bliss excess"
value_observed = -0.0185


* * *

# System: LS-180 (Colorectal Carcinoma)
# Procedure text: combination Emax (second highest fraction inhibited in the dose matrix, 72 h); higher = more inhibition; extreme values may be limits of the assay
# key: entry, value: combination Emax
Endpoint name: combination Emax

[[record]]
molecule = "Cc1c2c(nn1C)CSCc1cc(n(C)n1)CSc1cc(c3ccccc3c1)OCCCc1c(C(=O)O)n(C)c3c-2c(Cl)ccc13 [AZD5991] + Cc1cc2ncnn2cc1Nc1ncc2c(n1)n(C1CCOCC1)c(=O)n2C [AZD7648] (first compound max 1 µM, 7x7, partner max 10 µM)"
target_entity = "LS-180 (Colorectal Carcinoma)"
value_observed = 0.256

[[record]]
molecule = "CC1(C)CCC(CN2CCN(c3ccc(C(=O)NS(=O)(=O)c4ccc(NCC5CCOCC5)c([N+](=O)[O-])c4)c(Oc4cnc5[nH]ccc5c4)c3)CC2)=C(c2ccc(Cl)cc2)C1 [Venetoclax] + CCN(CCO)CCCOc1ccc2c(Nc3cc(CC(=O)Nc4cccc(F)c4)[nH]n3)ncnc2c1 [AZD2811] (first compound max 1 µM, 7x7, partner max 1 µM)"
target_entity = "LS-180 (Colorectal Carcinoma)"
value_observed = 0.244

[[record]]
molecule = "Cc1nc(Nc2ncc(C(=O)Nc3c(C)cccc3Cl)s2)cc(N2CCN(CCO)CC2)n1 [Dasatinib] + CC(=O)Nc1cccc(-n2c(=O)n(C3CC3)c(=O)c3c(Nc4ccc(I)cc4F)n(C)c(=O)c(C)c32)c1 [Trametinib] (first compound max 2 µM, 7x7, partner max 1 µM)"
target_entity = "LS-180 (Colorectal Carcinoma)"
value_observed = 0.747

[[record]]
molecule = "COc1nnc2ccc(N3CCC(c4ccc(OCCN5CCN(C)C(=O)[C@H]5C)cc4)CC3)nn12 [AZD5153] + Cn1cnc2c(F)c(Nc3ccc(Br)cc3Cl)c(C(=O)NOCCO)cc21 [Selumetinib] (first compound max 1 µM, 7x7, partner max 10 µM)"
target_entity = "LS-180 (Colorectal Carcinoma)"
value_observed = 0.828

[[record]]
molecule = "Cc1c2c(nn1C)CSCc1cc(n(C)n1)CSc1cc(c3ccccc3c1)OCCCc1c(C(=O)O)n(C)c3c-2c(Cl)ccc13 [AZD5991] + CC1(C)CCC(CN2CCN(c3ccc(C(=O)NS(=O)(=O)c4ccc(NCC5CCOCC5)c([N+](=O)[O-])c4)c(Oc4cnc5[nH]ccc5c4)c3)CC2)=C(c2ccc(Cl)cc2)C1 [Venetoclax] (first compound max 1 µM, 7x7, partner max 1 µM)"
target_entity = "LS-180 (Colorectal Carcinoma)"
value_observed = 0.191

[[record]]
molecule = "Cc1cc2ncnn2cc1Nc1ncc2c(n1)n(C1CCOCC1)c(=O)n2C [AZD7648] + O=C(c1cc(Cc2n[nH]c(=O)c3ccccc23)ccc1F)N1CCN(C(=O)C2CC2)CC1 [Olaparib] (first compound max 10 µM, 7x7, partner max 10 µM)"
target_entity = "LS-180 (Colorectal Carcinoma)"
value_observed = 0.338

[[record]]
molecule = "Cc1c2c(nn1C)CSCc1cc(n(C)n1)CSc1cc(c3ccccc3c1)OCCCc1c(C(=O)O)n(C)c3c-2c(Cl)ccc13 [AZD5991] + Cn1cnc2c(F)c(Nc3ccc(Br)cc3Cl)c(C(=O)NOCCO)cc21 [Selumetinib] (first compound max 1 µM, 7x7, partner max 3 µM)"
target_entity = "LS-180 (Colorectal Carcinoma)"
value_observed = 0.589

[[record]]
molecule = "COc1cccc(OCCCN)c1-c1cc(Nc2cnc(C#N)cn2)n[nH]1 [Prexasertib] + CCc1c2c(nc3ccc(O)cc13)-c1cc3c(c(=O)n1C2)COC(=O)[C@]3(O)CC [SN-38] (first compound max 1 µM, 7x7, partner max 0.3 µM)"
target_entity = "LS-180 (Colorectal Carcinoma)"
value_observed = 0.759

[[record]]
molecule = "Cn1cnc2c(F)c(Nc3ccc(Br)cc3Cl)c(C(=O)NOCCO)cc21 [Selumetinib] + C[C@@H]1COCCN1C2=NC(=NC(=C2)C3(CC3)[S@](=N)(=O)C)C4=C5C=CNC5=NC=C4 [AZD6738] (first compound max 10 µM, 7x7, partner max 10 µM)"
target_entity = "LS-180 (Colorectal Carcinoma)"
value_observed = 0.76

[[record]]
molecule = "Cc1c2c(nn1C)CSCc1cc(n(C)n1)CSc1cc(c3ccccc3c1)OCCCc1c(C(=O)O)n(C)c3c-2c(Cl)ccc13 [AZD5991] + C=CCn1c(=O)c2cnc(Nc3ccc(N4CCN(C)CC4)cc3)nc2n1-c1cccc(C(C)(C)O)n1 [AZD1775] (first compound max 1 µM, partner max 1 µM)"
target_entity = "LS-180 (Colorectal Carcinoma)"
value_observed = 0.47

[[record]]
molecule = "Cc1cc2ncnn2cc1Nc1ncc2c(n1)n(C1CCOCC1)c(=O)n2C [AZD7648] + COc1cc([C@@H]2c3cc4c(cc3[C@@H](O[C@@H]3O[C@@H]5CO[C@@H](C)O[C@H]5[C@H](O)[C@H]3O)[C@H]3COC(=O)[C@H]23)OCO4)cc(OC)c1O [Etoposide] (first compound max 10 µM, 7x7, partner max 10 µM)"
target_entity = "LS-180 (Colorectal Carcinoma)"
value_observed = 0.729

[[record]]
molecule = "Cn1cnc2c(F)c(Nc3ccc(Br)cc3Cl)c(C(=O)NOCCO)cc21 [Selumetinib] + CCN(CCO)CCCOc1ccc2c(Nc3cc(CC(=O)Nc4cccc(F)c4)[nH]n3)ncnc2c1 [AZD2811] (first compound max 10 µM, 7x7, partner max 1 µM)"
target_entity = "LS-180 (Colorectal Carcinoma)"
value_observed = 0.623

[[record]]
molecule = "COc1nnc2ccc(N3CCC(c4ccc(OCCN5CCN(C)C(=O)[C@H]5C)cc4)CC3)nn12 [AZD5153] + C[C@@H]1COCCN1C2=NC(=NC(=C2)C3(CC3)[S@](=N)(=O)C)C4=C5C=CNC5=NC=C4 [AZD6738] (first compound max 1 µM, 7x7, partner max 10 µM)"
target_entity = "LS-180 (Colorectal Carcinoma)"
value_observed = 0.767

[[record]]
molecule = "CC1(C)CCC(CN2CCN(c3ccc(C(=O)NS(=O)(=O)c4ccc(NCC5CCOCC5)c([N+](=O)[O-])c4)c(Oc4cnc5[nH]ccc5c4)c3)CC2)=C(c2ccc(Cl)cc2)C1 [Venetoclax] + C[C@@H](Nc1cc(F)cc(F)c1)c1cc(C(=O)N(C)C)cc2c(=O)cc(N3CCOCC3)oc12 [AZD8186] (first compound max 1 µM, 7x7, partner max 3 µM)"
target_entity = "LS-180 (Colorectal Carcinoma)"
value_observed = 0.184

[[record]]
molecule = "COc1cccc(OCCCN)c1-c1cc(Nc2cnc(C#N)cn2)n[nH]1 [Prexasertib] + C=CCn1c(=O)c2cnc(Nc3ccc(N4CCN(C)CC4)cc3)nc2n1-c1cccc(C(C)(C)O)n1 [AZD1775] (first compound max 1 µM, partner max 1 µM)"
target_entity = "LS-180 (Colorectal Carcinoma)"
value_observed = 0.819


* * *

The entries below come with measured combination Emax values attached.
# System: SK-ES-1 (Ewing's Sarcoma)
# Procedure text: combination Emax (second highest fraction inhibited in the dose matrix, 72 h); higher = more inhibition; extreme values may be limits of the assay
Endpoint name: combination Emax

[[record]]
molecule = "CN(CCO)CC[C@H](CSc1ccccc1)Nc1ccc(S(=O)(=O)NC(=O)c2ccc(N3CCC([C@@H](O)c4ccccc4-c4ccc(Cl)cc4)CC3)cc2)cc1S(=O)(=O)C(F)(F)F [AZD4320] + CCN(CCO)CCCOc1ccc2c(Nc3cc(CC(=O)Nc4cccc(F)c4)[nH]n3)ncnc2c1 [AZD2811] (first compound max 1 µM, 7x7, partner max 1 µM)"
value_observed = 1

[[record]]
molecule = "NC1(C(=O)N[C@@H](CCO)c2ccc(Cl)cc2)CCN(c2ncnc3[nH]ccc23)CC1 [Capivasertib] + COc1nnc2ccc(N3CCC(c4ccc(OCCN5CCN(C)C(=O)[C@H]5C)cc4)CC3)nn12 [AZD5153] (first compound max 10 µM, 7x7, partner max 1 µM)"
value_observed = 0.789

[[record]]
molecule = "C[C@@H](c1ccc2nccn2c1)n1nnc2ncc(-c3cnn(C)c3)nc21 [Savolitinib] + CN(CC[C@H](CSC1=CC=CC=C1)NC2=C(C=C(C=C2)S(=O)(=O)NC(=O)C3=CC=C(C=C3)N4CCC(CC4)[C@H](C5=CC=CC=C5C6=CC=C(C=C6)Cl)O)S(=O)(=O)C(F)(F)F)CCO [AZD4320] (first compound max 1 µM, 7x7, partner max 1 µM)"
value_observed = 0.758

[[record]]
molecule = "Cn1cnc2c(F)c(Nc3ccc(Br)cc3Cl)c(C(=O)NOCCO)cc21 [Selumetinib] + CCN(CCO)CCCOc1ccc2c(Nc3cc(CC(=O)Nc4cccc(F)c4)[nH]n3)ncnc2c1 [AZD2811] (first compound max 10 µM, 7x7, partner max 1 µM)"
value_observed = 0.96

[[record]]
molecule = "CC1(C)CCC(CN2CCN(c3ccc(C(=O)NS(=O)(=O)c4ccc(NCC5CCOCC5)c([N+](=O)[O-])c4)c(Oc4cnc5[nH]ccc5c4)c3)CC2)=C(c2ccc(Cl)cc2)C1 [Venetoclax] + C=CCn1c(=O)c2cnc(Nc3ccc(N4CCN(C)CC4)cc3)nc2n1-c1cccc(C(C)(C)O)n1 [AZD1775] (first compound max 1 µM, partner max 1 µM)"
value_observed = 0.987

[[record]]
molecule = "C=CCn1c(=O)c2cnc(Nc3ccc(N4CCN(C)CC4)cc3)nc2n1-c1cccc(C(C)(C)O)n1 [AZD1775] + C1CN(CCC1(C(=O)N[C@@H](CCO)C2=CC=C(C=C2)Cl)N)C3=NC=NC4=C3C=CN4 [Capivasertib] (first compound max 3 µM, partner max 3 µM)"
value_observed = 0.883

[[record]]
molecule = "CN(CCO)CC[C@H](CSc1ccccc1)Nc1ccc(S(=O)(=O)NC(=O)c2ccc(N3CCC([C@@H](O)c4ccccc4-c4ccc(Cl)cc4)CC3)cc2)cc1S(=O)(=O)C(F)(F)F [AZD4320] + Cc1cc2ncnn2cc1Nc1ncc2c(n1)n(C1CCOCC1)c(=O)n2C [AZD7648] (first compound max 1 µM, 7x7, partner max 10 µM)"
value_observed = 0.911

[[record]]
molecule = "COc1nnc2ccc(N3CCC(c4ccc(OCCN5CCN(C)C(=O)[C@H]5C)cc4)CC3)nn12 [AZD5153] + C[C@@H]1COCCN1C2=NC(=NC(=C2)C3(CC3)[S@](=N)(=O)C)C4=C5C=CNC5=NC=C4 [AZD6738] (first compound max 1 µM, 7x7, partner max 10 µM)"
value_observed = 0.929

[[record]]
molecule = "COc1cccc(OCCCN)c1-c1cc(Nc2cnc(C#N)cn2)n[nH]1 [Prexasertib] + CCc1c2c(nc3ccc(O)cc13)-c1cc3c(c(=O)n1C2)COC(=O)[C@]3(O)CC [SN-38] (first compound max 1 µM, 7x7, partner max 0.3 µM)"
value_observed = 1

[[record]]
molecule = "CN(CCO)CC[C@H](CSc1ccccc1)Nc1ccc(S(=O)(=O)NC(=O)c2ccc(N3CCC([C@@H](O)c4ccccc4-c4ccc(Cl)cc4)CC3)cc2)cc1S(=O)(=O)C(F)(F)F [AZD4320] + C[C@@H]1COCCN1C2=NC(=NC(=C2)C3(CC3)[S@](=N)(=O)C)C4=C5C=CNC5=NC=C4 [AZD6738] (first compound max 1 µM, 7x7, partner max 10 µM)"
value_observed = 1

[[record]]
molecule = "CS(=O)(=O)CCNCc1ccc(-c2ccc3ncnc(Nc4ccc(OCc5cccc(F)c5)c(Cl)c4)c3c2)o1 [Lapatinib] + C[C@@H](Oc1cc(-c2cnn(C3CCNCC3)c2)cnc1N)c1c(Cl)ccc(F)c1Cl [Crizotinib] (first compound max 10 µM, 7x7, partner max 10 µM)"
value_observed = 0.938

[[record]]
molecule = "CC(=O)Nc1cccc(-n2c(=O)n(C3CC3)c(=O)c3c(Nc4ccc(I)cc4F)n(C)c(=O)c(C)c32)c1 [Trametinib] + Cc1nc(-c2cn3c(n2)-c2ccc(-c4cnn(C(C)(C)C(N)=O)c4)cc2OCC3)n(C(C)C)n1 [Taselisib] (first compound max 1 µM, 7x7, partner max 10 µM)"
value_observed = 0.696

[[record]]
molecule = "Cc1c2c(nn1C)CSCc1cc(n(C)n1)CSc1cc(c3ccccc3c1)OCCCc1c(C(=O)O)n(C)c3c-2c(Cl)ccc13 [AZD5991] + C1CN(CCC1(C(=O)N[C@@H](CCO)C2=CC=C(C=C2)Cl)N)C3=NC=NC4=C3C=CN4 [Capivasertib] (first compound max 1 µM, 7x7, partner max 3 µM)"
value_observed = 0.854


meta.source: the supplement of paper PMC11061612
